# system.tested: Bcl-xL-Beclin 1 complex (Homo sapiens, UniProt Q07817)
# Construct: made in house
# Sequence (Q07817 whole entry, one chain of several): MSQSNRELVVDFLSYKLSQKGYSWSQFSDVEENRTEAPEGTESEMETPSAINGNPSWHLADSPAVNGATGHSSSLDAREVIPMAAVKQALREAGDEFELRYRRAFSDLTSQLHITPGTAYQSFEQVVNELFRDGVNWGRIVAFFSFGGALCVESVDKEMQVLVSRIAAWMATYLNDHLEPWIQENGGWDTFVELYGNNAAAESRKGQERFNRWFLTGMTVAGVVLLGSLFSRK
# experiment.description: Concentration response FP reconfirmation of HTS hits
# Format: binding
# condition.notes: 40 μM; hits of first screen; read-out: Dose-response (% Inhibition) 40 μM
Structures can show the parent of a compound that is named as a salt.
Exercise: for every item that follows, state its recorded inhibition at 40 µM.
The figure you give is taken to be in %; do not add the unit.

Asked: Record request: inhibition at 40 µM value, item CCCCC(CC)CCC(CC(C)C)OS(=O)(=O)O (stereo not shown) [Compound A06, SODIUM TETRADECYL SULFATE]
Given back: 2.6

Asked: Record request: inhibition at 40 µM value, item O=C(O)c1cc(O)c2c(c1)[C@H]([C@H]1c3cc(C(=O)O)cc(O)c3C(=O)c3c(O[C@@H]4O[C@H](CO)[C@@H](O)[C@H](O)[C@H]4O)cccc31)c1cccc(O[C@@H]3O[C@H](CO)[C@@H](O)[C@H](O)[C@H]3O)c1C2=O [Compound A34, SENNOSIDE A]
Given back: 12

Asked: Record request: inhibition at 40 µM value, item O=C1c2cccc(O)c2C(=O)c2c(O)cccc21
Given back: 4.9

Asked: Record request: inhibition at 40 µM value, item CCc1oc2ccccc2c1C(=O)c1cc(Br)c(O)c(Br)c1
Given back: 1.1

From: paper PMC5584254
